Known pIC50 of a selection of compounds
- assay-system: PD-1/PD-L1 (Homo sapiens, UniProt Q9NZQ7)
- Construct: Recombinant human PD-L1 protein (19-238) with a Histag at the C-terminus; PD1-H5257 (PD-1)
- Sequence (Q9NZQ7 19-238): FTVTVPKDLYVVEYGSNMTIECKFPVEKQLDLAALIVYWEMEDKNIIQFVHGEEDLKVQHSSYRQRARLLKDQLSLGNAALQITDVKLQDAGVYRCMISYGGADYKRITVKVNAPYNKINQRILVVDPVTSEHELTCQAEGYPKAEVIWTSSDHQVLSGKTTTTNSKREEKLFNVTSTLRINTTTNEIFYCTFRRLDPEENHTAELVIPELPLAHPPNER
- experimental-details: PD-1/PD-L1 Homogeneous Time-Resolved Fluorescence (HTRF) Binding Assay
- particulars: PD-1/PD-L1 HTRF activity; 3 nM PD1, 10 nM PD-L1, 25° C.
pIC50: −log10 of the molar value.

Previously resolved entries follow.
[
  {
    "compound": "O=c1c2cc(-c3cccc(-c4cccc(-c5cc6c(=O)n(CCO)cnn6c5)c4Cl)c3Cl)cn2ncn1CCO",
    "measured": "≤ 7.00"
  },
  {
    "compound": "Cc1cn2nc(-c3cccc(-c4cccc(-c5cc6c(=O)n(CCN7CCCCC7C(=O)O)c(C)cn6n5)c4Cl)c3Cl)cc2c(=O)n1CCN1CCCCC1C(=O)O (centres unmarked)",
    "measured": "7.00 to 8.00"
  },
  {
    "compound": "Cc1cn2cc(-c3cccc(-c4cccc(-c5cc6c(=O)n(CCNC[C@@H]7CCC(=O)N7)c(C)cn6c5)c4Cl)c3Cl)cc2c(=O)n1CCNC[C@@H]1CCC(=O)N1",
    "measured": "> 8.00"
  },
  {
    "compound": "Cc1cn2nc(-c3cccc(-c4cccc(-c5cc6c(=O)n(CCN7CCNCC7)c(C)cn6n5)c4Cl)c3Cl)cc2c(=O)n1CCN1CCNCC1",
    "measured": "≤ 7.00"
  },
  {
    "compound": "Cc1cn2cc(-c3cccc(-c4cccc(-c5cc6c(=O)n(C[C@H]7CCCN7)c(C)cn6c5)c4Cl)c3Cl)cc2c(=O)n1C[C@H]1CCCN1",
    "measured": "7.00 to 8.00"
  }
]

Just so you know, measured pIC50 for Cc1cn2nc(-c3cccc(-c4cccc(-c5cc6c(=O)n(CCN7CC[C@H](O)[C@H]7C(=O)O)c(C)cn6n5)c4Cl)c3Cl)cc2c(=O)n1CCN1CC[C@H](O)[C@H]1C(=O)O came out at 7.00 to 8.00

Just so you know, measured pIC50 for O=C1CC[C@@H](Cn2c(C3CC3)cn3nc(-c4cccc(-c5cccc(-c6cc7c(=O)n(C[C@@H]8CCC(=O)N8)c(C8CC8)cn7n6)c5Cl)c4Cl)cc3c2=O)N1 came out at 7.00 to 8.00

Just so you know, measured pIC50 for Cn1c(CN2CC[C@H](C(=O)O)C2)cn2cc(-c3cccc(-c4cccc(-c5cc6c(=O)n(C)c(CN7CC[C@H](C(=O)O)C7)cn6c5)c4Cl)c3Cl)cc2c1=O came out at 7.00 to 8.00

Just so you know, measured pIC50 for Cc1cn2nc(-c3cccc(-c4cccc(-c5cc6c(=O)n(CCN[C@H]7C[C@H](O)C7)c(C)cn6n5)c4Cl)c3Cl)cc2c(=O)n1CCN[C@H]1C[C@H](O)C1 came out at > 8.00

Just so you know, measured pIC50 for Cc1cn2cc(-c3cccc(-c4cccc(-c5cc6c(=O)n(C[C@@H]7CCCN7)c(C)cn6c5)c4Cl)c3Cl)cc2c(=O)n1C[C@@H]1CCCN1 came out at 7.00 to 8.00

Just so you know, measured pIC50 for Cn1c(CN2CC[C@H](O)C2)cn2cc(-c3cccc(-c4cccc(-c5cc6c(=O)n(C)c(CN7CC[C@H](O)C7)cn6c5)c4Cl)c3Cl)cc2c1=O came out at 7.00 to 8.00

Where these numbers come from: patent US20260248783A1
